system: mouse uterus; assay: Antiuterotrophic test on infantile mouse (anti-estrogen activity); format: in vivo; set-up: unit not given here; settings: infantile mouse, dose 25 ug/animal
Please use Y for Antiuterotrophic Test Action (rel. uterus wgt) under 50 and N for everything else, ties included.

Some solved entries appear below for comparison.
CCN(CC)CCCCCCn1c(-c2ccc(O)cc2)c(C)c2cc(O)ccc21 [Compound 11]: N
Cc1c(-c2ccc(O)cc2)n(CCCCCCNCc2ccccc2)c2ccc(O)cc12 [Compound 12]: Y
Cc1c(-c2ccc(O)cc2)n(CCCCCC(=O)N2CCOCC2)c2ccc(O)cc12 [Compound 18]: N
Cc1c(-c2ccc(O)cc2)n(CCCCCC(=O)NCc2ccccc2)c2ccc(O)cc12 [Compound 20]: Y
Cc1c(-c2ccc(O)cc2)n(CCCCCC(=O)N2CCCC2)c2ccc(O)cc12 [Compound 16]: Y

Moving on to the next compound.
QUERY: Determine if Cc1c(-c2ccc(O)cc2)n(CCCCCC(=O)N2CCCCC2)c2ccc(O)cc12 [Compound 17] shows Antiuterotrophic Test Action (rel. uterus wgt) strictly lower than 50.
RESULT: Y
